target-or-test-system: FGFR1c extracellular domain-Fc (human, UniProt P11362-1 22-376)
Sequence (P11362 22-376): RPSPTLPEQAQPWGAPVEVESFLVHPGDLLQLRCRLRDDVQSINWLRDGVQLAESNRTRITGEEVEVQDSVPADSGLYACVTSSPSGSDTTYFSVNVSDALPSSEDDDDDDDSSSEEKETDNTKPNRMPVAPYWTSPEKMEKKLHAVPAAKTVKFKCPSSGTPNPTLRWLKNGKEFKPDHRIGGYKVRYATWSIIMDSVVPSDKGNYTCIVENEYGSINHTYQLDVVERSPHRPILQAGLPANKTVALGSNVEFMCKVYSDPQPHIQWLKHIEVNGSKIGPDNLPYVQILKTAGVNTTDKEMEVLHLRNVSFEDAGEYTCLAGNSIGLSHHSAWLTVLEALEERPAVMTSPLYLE
test-name: BLI; PBS, no Mg2+; BLI (Octet K2, protein A sensor, FGFR-Fc 5 ug/mL), VZ23 31.25-500 nM in PBS (8.1 mM Na2HPO4, 1.5 mM NaH2PO4, 137 mM NaCl, 2.7 mM KCl as given for NMR) with or without 2 mM MgCl2; pH 7.3 (stated for CD); temperature not stated
condition-label: protein: recombinant; tags: IgG1 Fc fusion; antiparallel G-quadruplex-like fold
quantity: Kd (nM)

| binder | reported-value |
| --- | --- |
| GGGATACAGGGCTTTGTCTATGGTGTGGATGGCGGATACC (structured_DNA) [VZ23] | 162 |

// provenance: paper PMC11700292
